// reported IC50, EGF-stimulated ERK phosphorylation, A431 cells, In Cell Western per item
biological target: EGFR on the surface of human tumour cells (A431, H292) (human, UniProt P00533 25-1210); assay: cell-based or functional assay
Give just the numeric value; nM need not be written.

- Binder: "I1-GS10-E1, His-tagged, non-pegylated (designed binder) MGVSDVPRDLEVVAATPTSLLISWSARLKVARYYRITYGETGGNSPVQEFTVPKNVYTATISGLKPGVDYTITVYAVTRFRDYQPISINYRTEIDKGSGSGSGSGSGSGSGSGSGSVSDVPRDLEVVAATPTSLLISWVAGAEDYQYYRITYGETGGNSPVQEFTVPHDLVTATISGLKPGVDYTITVYAVTDMMHVEYTEHPISINYRTEIDKPSQHHHHHH"
  Result Units: "nM"
  Number: 99

Identify measured IC50, EGF-stimulated ERK phosphorylation, A431 cells, In Cell Western corresponding to I1GS10-E3 (Pegylated) (designed binder, Cys of the C-terminal Cys tail conjugated to 40 kDa branched PEG) I/E tandem 10Fn3 chain: MGVSDVPRDLEVVAATPTSLLISWSARLKVARYYRITYGETGGNSPVQEFTVPKNVYTATISGLKPGVDYTITVYAVTRFRDYQPISINYRTEIDKGSGSGSGSGSGSGSGSGSGSVSDVPRDLEVVAATPTSLLISWLPGKLRYQYYRITYGETGGNSPVQEFTVPHDLRTATISGLKPGVDYTITVYAVTNMMHVEYSEYPISINYRTEIDKPCQHHHHHH 50

Identify measured IC50, EGF-stimulated ERK phosphorylation, A431 cells, In Cell Western corresponding to I1-GS10-E1 pegylated, His-tagged (designed binder, 40 kDa branched PEG on the Cys of the C-terminal Cys tail) MGVSDVPRDLEVVAATPTSLLISWSARLKVARYYRITYGETGGNSPVQEFTVPKNVYTATISGLKPGVDYTITVYAVTRFRDYQPISINYRTEIDKGSGSGSGSGSGSGSGSGSGSVSDVPRDLEVVAATPTSLLISWVAGAEDYQYYRITYGETGGNSPVQEFTVPHDLVTATISGLKPGVDYTITVYAVTDMMHVEYTEHPISINYRTEIDKPCQHHHHHH 300
